// provenance: patent US20210255184A1

Test target: Or10a (Drosophila melanogaster)
Construct: his-tag; made in house; host or cells: baculovirus-infected Sf9 cells
Procedure text: EIS sensor, Or10a liposomes on gold electrode
Assay type: biochemical
Condition label: Table 1, approximate
Readout: EC50

Prompt: Recall and state the measured EC50 for COC(=O)c1ccccc1O [methyl salicylate] .
Completion: ~0.1 nM

---

Test target: Or10a/Orco (Drosophila melanogaster)
Construct: his-tag; made in house; host or cells: baculovirus-infected Sf9 cells
Sequence (Q9VYZ1 whole entry): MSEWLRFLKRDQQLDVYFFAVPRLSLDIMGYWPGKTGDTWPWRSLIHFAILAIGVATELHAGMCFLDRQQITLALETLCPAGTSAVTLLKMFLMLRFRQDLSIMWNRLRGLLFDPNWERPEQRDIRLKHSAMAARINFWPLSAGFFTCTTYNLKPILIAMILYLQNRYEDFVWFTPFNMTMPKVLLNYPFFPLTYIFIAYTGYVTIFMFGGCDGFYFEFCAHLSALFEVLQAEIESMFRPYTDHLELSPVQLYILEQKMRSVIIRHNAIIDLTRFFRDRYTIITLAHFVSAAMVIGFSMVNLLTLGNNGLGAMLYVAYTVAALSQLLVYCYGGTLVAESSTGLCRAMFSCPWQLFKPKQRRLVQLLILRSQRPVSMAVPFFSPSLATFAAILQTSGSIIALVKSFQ
Sequence (Q9VNB5 whole entry partner): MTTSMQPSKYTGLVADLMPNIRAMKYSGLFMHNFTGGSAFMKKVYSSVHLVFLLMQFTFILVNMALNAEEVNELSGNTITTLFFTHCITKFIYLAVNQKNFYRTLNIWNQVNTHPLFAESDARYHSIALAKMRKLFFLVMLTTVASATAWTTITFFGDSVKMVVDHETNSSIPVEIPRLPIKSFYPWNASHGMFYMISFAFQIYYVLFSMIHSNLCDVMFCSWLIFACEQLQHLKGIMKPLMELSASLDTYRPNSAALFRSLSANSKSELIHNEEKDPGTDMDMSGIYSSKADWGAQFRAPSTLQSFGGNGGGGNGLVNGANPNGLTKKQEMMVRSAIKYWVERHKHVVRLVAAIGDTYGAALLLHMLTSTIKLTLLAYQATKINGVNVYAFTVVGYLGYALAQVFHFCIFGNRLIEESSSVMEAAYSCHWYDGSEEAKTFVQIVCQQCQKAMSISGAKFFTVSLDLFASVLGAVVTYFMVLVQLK
Procedure text: EIS sensor, Or10a/Orco liposomes on gold electrode
Assay type: biochemical
Condition label: Table 1, approximate
pEC50: −log10 of the molar value.
Readout: pEC50

Prompt: Recall and state the measured pEC50 for COC(=O)c1ccccc1O [methyl salicylate] .
Completion: ~12.00
